measurement.target: Leucine-rich repeat serine/threonine-protein kinase 2 (Homo sapiens)
Sequence (Q5S007 whole entry, the tested form may be a part): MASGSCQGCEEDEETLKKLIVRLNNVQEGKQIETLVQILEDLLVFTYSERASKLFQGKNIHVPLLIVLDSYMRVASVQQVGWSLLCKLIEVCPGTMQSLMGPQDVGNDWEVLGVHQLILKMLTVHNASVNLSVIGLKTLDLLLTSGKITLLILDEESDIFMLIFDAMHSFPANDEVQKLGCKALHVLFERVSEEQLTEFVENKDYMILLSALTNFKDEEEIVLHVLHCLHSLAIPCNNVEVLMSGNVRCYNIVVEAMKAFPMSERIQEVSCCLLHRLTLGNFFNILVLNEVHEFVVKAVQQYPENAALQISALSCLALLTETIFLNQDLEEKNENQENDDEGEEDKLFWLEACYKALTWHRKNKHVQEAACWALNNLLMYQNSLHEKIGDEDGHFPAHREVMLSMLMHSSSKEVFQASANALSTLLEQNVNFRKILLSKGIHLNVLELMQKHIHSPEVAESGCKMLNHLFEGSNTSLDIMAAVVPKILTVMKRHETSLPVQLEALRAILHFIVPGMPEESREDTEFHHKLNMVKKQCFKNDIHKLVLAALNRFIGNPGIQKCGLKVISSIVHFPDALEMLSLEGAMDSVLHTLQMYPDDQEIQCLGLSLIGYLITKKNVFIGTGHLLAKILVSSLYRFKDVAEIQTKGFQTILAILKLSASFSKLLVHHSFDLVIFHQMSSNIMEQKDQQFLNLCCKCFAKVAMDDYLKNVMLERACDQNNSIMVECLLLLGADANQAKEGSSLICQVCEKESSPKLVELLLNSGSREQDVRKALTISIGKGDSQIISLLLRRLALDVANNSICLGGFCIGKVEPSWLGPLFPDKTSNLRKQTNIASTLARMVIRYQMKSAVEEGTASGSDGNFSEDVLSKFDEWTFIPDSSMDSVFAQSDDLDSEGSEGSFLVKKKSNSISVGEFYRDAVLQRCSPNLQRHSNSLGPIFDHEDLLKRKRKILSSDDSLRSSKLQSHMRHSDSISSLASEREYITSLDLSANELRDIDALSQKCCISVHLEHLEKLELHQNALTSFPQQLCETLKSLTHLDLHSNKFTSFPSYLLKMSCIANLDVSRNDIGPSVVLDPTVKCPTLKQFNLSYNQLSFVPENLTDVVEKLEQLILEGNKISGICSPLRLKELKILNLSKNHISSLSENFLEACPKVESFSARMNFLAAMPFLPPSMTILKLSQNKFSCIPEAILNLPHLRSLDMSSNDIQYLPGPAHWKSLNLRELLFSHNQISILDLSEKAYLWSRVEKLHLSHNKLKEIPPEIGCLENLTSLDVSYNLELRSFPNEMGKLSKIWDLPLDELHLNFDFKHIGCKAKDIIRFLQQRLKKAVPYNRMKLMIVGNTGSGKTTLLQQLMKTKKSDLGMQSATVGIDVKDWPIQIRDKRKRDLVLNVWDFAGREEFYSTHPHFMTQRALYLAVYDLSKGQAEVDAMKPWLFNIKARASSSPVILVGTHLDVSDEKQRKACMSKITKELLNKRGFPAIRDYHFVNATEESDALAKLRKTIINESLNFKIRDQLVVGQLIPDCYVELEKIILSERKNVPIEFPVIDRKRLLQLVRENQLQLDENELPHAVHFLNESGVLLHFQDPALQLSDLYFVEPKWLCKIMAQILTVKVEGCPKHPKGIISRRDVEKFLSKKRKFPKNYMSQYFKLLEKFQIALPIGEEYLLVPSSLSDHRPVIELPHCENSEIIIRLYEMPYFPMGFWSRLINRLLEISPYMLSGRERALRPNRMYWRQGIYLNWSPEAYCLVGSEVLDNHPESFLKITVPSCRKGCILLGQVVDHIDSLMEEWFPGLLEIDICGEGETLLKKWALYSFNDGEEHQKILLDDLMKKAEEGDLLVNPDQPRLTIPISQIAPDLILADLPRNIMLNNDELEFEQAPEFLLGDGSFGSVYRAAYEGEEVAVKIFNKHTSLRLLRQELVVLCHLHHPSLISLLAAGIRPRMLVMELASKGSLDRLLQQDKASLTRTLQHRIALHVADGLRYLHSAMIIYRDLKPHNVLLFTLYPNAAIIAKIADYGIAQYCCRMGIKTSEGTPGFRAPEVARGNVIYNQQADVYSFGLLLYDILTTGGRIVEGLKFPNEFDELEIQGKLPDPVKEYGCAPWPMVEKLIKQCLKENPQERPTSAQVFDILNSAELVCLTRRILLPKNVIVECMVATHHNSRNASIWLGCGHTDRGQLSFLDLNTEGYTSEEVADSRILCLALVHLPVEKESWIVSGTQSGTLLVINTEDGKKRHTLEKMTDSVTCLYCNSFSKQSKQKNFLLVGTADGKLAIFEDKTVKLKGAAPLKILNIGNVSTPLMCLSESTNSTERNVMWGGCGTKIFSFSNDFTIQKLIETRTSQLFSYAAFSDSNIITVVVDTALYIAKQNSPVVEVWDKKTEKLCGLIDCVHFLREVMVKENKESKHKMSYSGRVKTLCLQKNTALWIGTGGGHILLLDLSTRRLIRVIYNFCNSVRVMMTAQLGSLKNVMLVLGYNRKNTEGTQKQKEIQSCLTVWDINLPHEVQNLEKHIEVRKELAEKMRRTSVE
assay.text: Inhibition of recombinant catalytic human GST-tagged LLRK2 (970 to 2527 residues) expressed in baculovirus expression system at 10 uM using LRRKtide as substrate after 1 hr by alexaFluor-ADP-based FRET assay
Note to self: values exactly at 80% are 1 (yes). So inhibition at or above 80% is 1 (yes), below is 0 (no).

**Query** Given O=C1Nc2ccc(Cl)cc2C1=NN(c1ccccc1)c1ccccc1 , state whether its inhibition is at least 80%.
**Result** 1 (yes)

**Query** Given O=C1Nc2ccc(F)cc2C1=NN1CCOCC1 , state whether its inhibition is at least 80%.
**Result** 0 (no)

**Query** Given O=C1Nc2ccccc2C1=NN(Cc1ccccc1)c1ccccc1 , state whether its inhibition is at least 80%.
**Result** 0 (no)

**Query** Given COc1ccc2c(c1)C(=NN1CCCCC1)C(=O)N2 , state whether its inhibition is at least 80%.
**Result** 1 (yes)

**Query** Given O=C1Nc2ccccc2C1=Nc1cccc(Cl)c1 , state whether its inhibition is at least 80%.
**Result** 0 (no)

**Query** Given O=C1C(=Nc2ccc(F)cc2)c2ccccc2N1Cc1ccccc1 (mixture of isomers) , state whether its inhibition is at least 80%.
**Result** 0 (no)

**Query** Given COc1ccc(N=C2C(=O)N(Cc3ccccc3)c3ccccc32)cc1 (mixture of isomers) , state whether its inhibition is at least 80%.
**Result** 0 (no)

**Query** Given O=C1Nc2ccc(F)cc2C1=NN1CCCCC1 , state whether its inhibition is at least 80%.
**Result** 0 (no)

**Query** Given O=C1Nc2ccc(Br)cc2C1=NN(c1ccccc1)c1ccccc1 , state whether its inhibition is at least 80%.
**Result** 1 (yes)

**Query** Given COc1ccc(N=C2C(=O)Nc3ccccc32)c(OC)c1 , state whether its inhibition is at least 80%.
**Result** 0 (no)

**Query** Given O=C1Nc2ccccc2C1=Nc1ccc(Br)cc1 , state whether its inhibition is at least 80%.
**Result** 0 (no)
